Ref: patent US20240238223A1

- Test system: paclitaxel-resistant A549/T cells
- PROTOCOL: cells
- MEASUREMENT_CONDITIONS: Homo sapiens, A549, 96 h, read-out: Growth inhibition rate
What inhibition at 5 µM was measured for each of the following?
Numbers only, in %.

Below, 3 compounds whose answers are already recorded.
Cc1c(-c2ccc(N3CCc4cccc(C(=O)Nc5nc6ccccc6s5)c4C3)nc2C(=O)O)cnn1CC12CC3CC(CC(C3)C1)C2 ... 5.17
CC1(C)CCC(c2ccc(Cl)cc2)=C(CN2CCN(c3ccc(C(=O)NS(=O)(=O)c4ccc(N[C@H](CCN5CCOCC5)CSc5ccccc5)c(S(=O)(=O)C(F)(F)F)c4)cc3)CC2)C1 ... 2.84
CC1(C)CCC(CN2CCN(c3ccc(C(=O)NS(=O)(=O)c4ccc(NCC5CCOCC5)c([N+](=O)[O-])c4)c(Oc4cnc5[nH]ccc5c4)c3)CC2)=C(c2ccc(Cl)cc2)C1 ... 23.2

Quick note, inhibition at 5 µM for CN(C)CC#Cc1ccc(OCCCc2sc(N3CCc4cccc(C(=O)Nc5nc6ccccc6s5)c4C3)nc2C(=O)O)c(F)c1 landed at 6.97

###

Values of GI50 reported for KB cells appear below.
Give bare numbers, in nM.

CNc1ccc2c(cc1=O)C(NC(C)=O)CCc1cc(OC)c(OC)c(OC)c1-2 (stereo not shown) ... 6.41
COc1cc2c(c(OC)c1OC)-c1ccc(OC)c(=O)cc1[C@@H](NC(C)=O)CC2 ... 10.9

Required: GI50, one value per compound below.
1. CC[C@]1(O)C[C@H]2CN(CCc3c([nH]c4ccccc34)[C@@](C(=O)OC)(c3cc4c(cc3OC)N(C=O)[C@H]3[C@@](O)(C(=O)OC)[C@H](OC(C)=O)[C@]5(CC)C=CCN6CC[C@]43[C@@H]65)C2)C1
2. CC(=O)O[C@H]1C(=O)[C@@]2(C)[C@H]([C@H](OC(=O)c3ccccc3)[C@]3(O)C[C@H](OC(=O)[C@H](O)[C@@H](NC(=O)c4ccccc4)c4ccccc4)C(C)=C1C3(C)C)[C@]1(OC(C)=O)CO[C@@H]1C[C@@H]2O

Ans.
2.69
3.52

###

- System: paclitaxel-resistant A549/T cells
- PROTOCOL: cells
- MEASUREMENT_CONDITIONS: Homo sapiens, A549, 96 h, read-out: Growth inhibition rate
READOUT_TYPE: inhibition at 10 µM (%)
Answers are plain numbers, in %.

// worked examples, inhibition at 10 µM included
CN(C)CC#Cc1ccc(OCCCc2sc(N3CCc4cccc(C(=O)Nc5nc6ccccc6s5)c4C3)nc2C(=O)O)c(F)c1 ... 12.1
Cc1c(-c2ccc(N3CCc4cccc(C(=O)Nc5nc6ccccc6s5)c4C3)nc2C(=O)O)cnn1CC12CC3CC(CC(C3)C1)C2 ... 11.2
CC1(C)CCC(c2ccc(Cl)cc2)=C(CN2CCN(c3ccc(C(=O)NS(=O)(=O)c4ccc(N[C@H](CCN5CCOCC5)CSc5ccccc5)c(S(=O)(=O)C(F)(F)F)c4)cc3)CC2)C1 ... 67.7

Kindly consider the entry below.
Record CC1(C)CCC(CN2CCN(c3ccc(C(=O)NS(=O)(=O)c4ccc(NCC5CCOCC5)c([N+](=O)[O-])c4)c(Oc4cnc5[nH]ccc5c4)c3)CC2)=C(c2ccc(Cl)cc2)C1 . Reported inhibition at 10 µM: 57.7
